# ASSAY_NAME: Cytotoxicity against human RBC assessed as hemolytic activity after 24 hrs by spectrophotometry
# Type: cell-based, Erythrocyte
# RUN_PARAMETERS: human red blood cells (RBC), read-out: ID50
In this section we review reported HC50 at 24 h values for a set of compounds.

Field: example entries. Status: answers known.
COMPOUND	HC50 at 24 h
[O-][n+]1onc2ccc(CN3CCN(/C(=N/c4ccccc4)NCCc4ccccc4)CC3)cc21	37 µM
CC1(C)[N+]([O-])=c2ccc(CN3CCN(/C(=N/c4ccccc4)NCc4ccccc4)CC3)cc2=[N+]1[O-]	> 36 µM
[O-][n+]1onc2ccc(CN3CCN(/C(=N/c4ccccc4)NCc4ccccc4)CC3)cc21	83 µM
[O-][n+]1onc2ccc(CN3CCN(/C(=N/c4ccccc4)NCc4ccco4)CC3)cc21	> 200 µM
CC1CS(=O)(=O)CCN1/N=C/c1ccc([N+](=O)[O-])o1 (stereo not drawn)	> 100 µM

Input line: Give HC50 at 24 h for `[O-][n+]1onc2ccc(CN3CCN(/C(=N/c4ccccc4)Nc4ccccc4)CC3)cc21`
Output line: 105 µM

Input line: Give HC50 at 24 h for `CC1(C)[N+]([O-])=c2ccc(CN3CCN(/C(=N/c4ccccc4)NCCc4ccccc4)CC3)cc2=[N+]1[O-]`
Output line: > 50 µM

Input line: Give HC50 at 24 h for `CC1(C)[N+]([O-])=c2ccc(CN3CCN(/C(=N/c4ccccc4)NCc4ccco4)CC3)cc2=[N+]1[O-]`
Output line: > 200 µM
